molecular target: ROCK2 (Homo sapiens, UniProt O75116); construct: purchased Upstate/Chemicon 14-451; assay: Rho kinase inhibition assay (IMAP fluorescence polarization), ROCK2; type: biochemical; settings: 10 μM ATP; read-out: ROCK2 Ki, Avg;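 also: kinase reaction started with 10 µM ATP and run 60 min at room temperature, then phosphorylated substrate captured on IMAP beads for 30 min and fluorescence polarization read in mP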
Sequence (O75116 11-552 limits assumed): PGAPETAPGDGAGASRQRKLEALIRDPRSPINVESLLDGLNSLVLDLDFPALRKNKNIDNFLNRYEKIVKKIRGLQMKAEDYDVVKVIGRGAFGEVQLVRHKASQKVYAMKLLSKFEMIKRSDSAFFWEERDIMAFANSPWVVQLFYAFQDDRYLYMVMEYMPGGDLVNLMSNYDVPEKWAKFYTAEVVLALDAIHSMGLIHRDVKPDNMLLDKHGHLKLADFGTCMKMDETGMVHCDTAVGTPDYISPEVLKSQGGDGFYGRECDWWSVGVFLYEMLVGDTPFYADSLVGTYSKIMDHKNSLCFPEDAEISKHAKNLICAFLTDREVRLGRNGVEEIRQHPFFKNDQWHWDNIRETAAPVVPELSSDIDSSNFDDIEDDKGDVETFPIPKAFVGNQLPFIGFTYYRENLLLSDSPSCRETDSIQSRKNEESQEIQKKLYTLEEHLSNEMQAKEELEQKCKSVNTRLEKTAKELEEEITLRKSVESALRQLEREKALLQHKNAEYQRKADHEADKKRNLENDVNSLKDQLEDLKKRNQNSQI
Response field label takes true (1) when Ki is strictly below 8 nM and false (0) in all other cases.

c1cc(N[C@@H]2CCN(Cc3ccc4[nH]ccc4c3)C2)c2ccncc2c1 | true (1)
CS(=O)(=O)Nc1cccc(CN2CC[C@H](Nc3ccc4[nH]ncc4c3)C2)c1 | false (0)
c1cc(N[C@@H]2CCN(Cc3ccc(C4CC4)cc3)C2)c2ccncc2c1 | false (0)
OCCn1cc(CN2CC[C@@H](Nc3cccc4cnccc34)C2)c2ccccc21 | true (1)
O=C(COc1cccc(CN2CCC[C@@H](Nc3ccc4[nH]ncc4c3)C2)c1)N1CCOCC1 | false (0)
FC(F)(F)c1ccc(CN2CCC[C@@H](Nc3ccc4[nH]ncc4c3)C2)cc1 | false (0)
Clc1cccc(CN2CCC[C@H](Nc3ccc4[nH]ncc4c3)C2)c1 | false (0)

###

molecular target: p70S6K human enzyme (Homo sapiens, UniProt P23443, T412E); construct: purchased Upstate Chemicon 14-486; test: p70S6K inhibition assay (IMAP FP); assay type: biochemical; conditions: average Ki; read-out: p70S6K Ki
Sequence (P23443 1-421 T412E limits assumed): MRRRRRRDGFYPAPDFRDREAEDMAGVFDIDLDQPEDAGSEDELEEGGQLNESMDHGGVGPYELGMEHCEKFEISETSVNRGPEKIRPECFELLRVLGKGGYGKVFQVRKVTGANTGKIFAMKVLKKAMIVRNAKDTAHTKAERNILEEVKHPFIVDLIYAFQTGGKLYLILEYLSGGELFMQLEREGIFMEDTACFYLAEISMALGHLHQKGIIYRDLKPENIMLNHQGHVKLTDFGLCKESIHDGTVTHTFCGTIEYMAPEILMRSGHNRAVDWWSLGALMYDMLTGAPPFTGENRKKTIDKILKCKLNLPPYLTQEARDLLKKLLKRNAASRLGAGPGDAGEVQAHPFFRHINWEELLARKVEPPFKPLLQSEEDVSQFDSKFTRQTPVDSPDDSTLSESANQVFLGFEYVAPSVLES
pKi: −log10 of the molar value.
Binary classification by pKi, with 6 as an inclusive lower bound for satisfied; all other cases are not satisfied.

c1cc2cc(CN3CCC[C@H](Nc4ccc5[nH]ncc5c4)C3)ccc2[nH]1 | not satisfied
Clc1ccc(CN2CCC[C@@H](Nc3ccc4[nH]ncc4c3)C2)cc1 | satisfied
Brc1ccc(CN2CCC[C@@H](Nc3ccc4[nH]ncc4c3)C2)cc1 | satisfied
CSc1ccc(CN2CCC[C@@H](Nc3ccc4[nH]ncc4c3)C2)cc1 | satisfied
Cc1ccc(S(=O)(=O)Nc2cc(CN3CCC[C@H](Nc4ccc5[nH]ncc5c4)C3)ccc2C)cc1 | not satisfied
Cc1ccc(CN2CCC[C@H](Nc3ccc4[nH]ncc4c3)C2)c(C)c1 | not satisfied

###

biological target: Akt3 human enzyme (Homo sapiens); construct: purchased Upstate Chemicon 14-502; test: Akt3 inhibition assay (IMAP FP); type: biochemical; conditions: 30 μM ATP; Ki=IC50/(1+([ATP Challenge]/EC50 ATP)); read-out: Akt3 Ki, Avg
parameter-measured: Ki (µM)

Cc1ccc(CN2CCC[C@H](Nc3ccc4[nH]ncc4c3)C2)c(C)c1 [Compound 1.155] | 5.68
CCCS(=O)(=O)Nc1cc(CN2CCC[C@H](Nc3ccc4[nH]ncc4c3)C2)ccc1C [Compound 1.238] | 4.17
CCc1ccc(CN2CCC[C@H](Nc3ccc4[nH]ncc4c3)C2)cc1 [Compound 1.154] | 4.95
NC(=O)COc1cccc(CN2CCC[C@H](Nc3ccc4[nH]ncc4c3)C2)c1 [Compound 1.195] | 22
CSc1ccc(CN2CCC[C@@H](Nc3ccc4[nH]ncc4c3)C2)cc1 [Compound 1.074] | 0.437
C=Cc1ccc(CN2CCC[C@H](Nc3ccc4[nH]ncc4c3)C2)cc1 [Compound 1.229] | 24.6
c1cc2c(cc1CN1CCC[C@H](Nc3ccc4[nH]ncc4c3)C1)OCCO2 [Compound 1.166] | 18.1
O=C(COc1cccc(CN2CCC[C@@H](Nc3ccc4[nH]ncc4c3)C2)c1)N1CCOCC1 [Compound 1.127] | 0.975

###

Recorded Ki by entry
biological target: ROCK2 (Homo sapiens); construct: purchased Upstate/Chemicon 14-451; assay: Rho kinase inhibition assay (IMAP fluorescence polarization), ROCK2; format: biochemical; details: average Ki; read-out: ROCK2 Ki
parameter-measured: Ki (nM)

Cc1ccc(CN2CCC[C@H](Nc3ccc4[nH]ncc4c3)C2)cc1NS(C)(=O)=O | 1.3
CSc1ccc(CN2CCC[C@H](Nc3ccc4[nH]ncc4c3)C2)cc1 | 4.4
CCS(=O)(=O)Nc1cccc(CN2CCC[C@H](Nc3ccc4[nH]ncc4c3)C2)c1 | 3.3

###

test: Compound plasma concentrations in unsensitized mice at 15 min post administration; format: in vivo; conditions: mouse, 15 μmol/kg; mean compound plasma concentration in mice at 15 minutes post oral administration; read-out: Mouse Oral PK
Recorded concentration at 15 min by entry
parameter-measured: concentration at 15 min (nM)

C#Cc1cccc(CN2CCC[C@@H](Nc3ccc4[nH]ncc4c3)C2)c1 | 55
CSc1ccc(CN2CC[C@@H](Nc3cccc4cnccc34)C2)cc1 | 629
OCCn1ccc2ccc(CN3CC[C@@H](Nc4cccc5cnccc45)C3)cc21 | 308
CC(C)(C)OC(=O)NCc1cccc(CN2CCC[C@H](Nc3ccc4[nH]ncc4c3)C2)c1 | 89
Cc1ccc(CN2CCC[C@H](Nc3ccc4[nH]ncc4c3)C2)cc1OCCO | 435
c1cc2cc(CN3CCC[C@@H](Nc4ccc5[nH]ncc5c4)C3)ccc2o1 | 445
OCCN1CCc2ccc(CN3CCC[C@H](Nc4ccc5[nH]ncc5c4)C3)cc21 | 293
Cc1ccc(CN2CCC[C@H](Nc3ccc4[nH]ncc4c3)C2)cc1NS(C)(=O)=O | 41
OCc1ccc(CN2CCC[C@H](Nc3ccc4[nH]ncc4c3)C2)cc1 | 13
NS(=O)(=O)c1cccc(CN2CCC[C@H](Nc3ccc4[nH]ncc4c3)C2)c1 | 2650
Oc1cccc(CN2CC[C@@H](Nc3cccc4cnccc34)C2)c1 | 73
CCOC(=O)COc1cccc(CN2CCC[C@H](Nc3ccc4[nH]ncc4c3)C2)c1 | 0
CS(=O)(=O)Cc1cccc(CN2CCC[C@H](Nc3ccc4[nH]ncc4c3)C2)c1 | 357
OCCOc1cccc(CN2CC[C@@H](Nc3cccc4cnccc34)C2)c1 | 92
Cc1ccc(CN2CCC[C@@H](Nc3ccc4[nH]ncc4c3)C2)cc1O | 144
CS(=O)(=O)Nc1cc(CN2CCC[C@H](Nc3ccc4[nH]ncc4c3)C2)ccc1Cl | 396
OCCn1ccc2ccc(CN3CCC[C@H](Nc4ccc5[nH]ncc5c4)C3)cc21 | 187

###

molecular target: p70S6K human enzyme (Homo sapiens, UniProt P23443, T412E); construct: purchased Upstate Chemicon 14-486; test: p70S6K inhibition assay (IMAP FP); type: biochemical; conditions: 30 μM ATP; Ki=IC50/(1+([ATP Challenge]/EC50 ATP)); read-out: p70S6K Ki, Avg;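 also: kinase reaction run at room temperature, phosphorylated substrate captured on IMAP beads and read as fluorescence polarization in mP, IC50 then converted to Ki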
pKi: −log10 of the molar value.
Binary classification by pKi, with 6 as an inclusive lower bound for met; all other cases are not met.

CCS(=O)(=O)Nc1cccc(CN2CC[C@@H](Nc3cccc4cnccc34)C2)c1 | not met
CS(=O)(=O)Cc1cccc(CN2CCC[C@H](Nc3ccc4[nH]ncc4c3)C2)c1 | not met
c1cc2ccc(CN3CCC[C@H](Nc4ccc5[nH]ncc5c4)C3)cc2[nH]1 | met
Cc1ccc(CN2CCC[C@H](Nc3ccc4[nH]ncc4c3)C2)c(C)c1 | not met

###

target: Akt3 human enzyme (Homo sapiens, UniProt Q9Y243); construct: purchased Upstate Chemicon 14-502; test: Akt3 inhibition assay (IMAP FP); assay type: biochemical; conditions: average Ki; read-out: Akt3 Ki;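 also: kinase reaction run 60 min at room temperature after 30 µM ATP start, phosphorylated substrate captured on IMAP beads and read as fluorescence polarization (mP)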
Sequence (Q9Y243 whole entry): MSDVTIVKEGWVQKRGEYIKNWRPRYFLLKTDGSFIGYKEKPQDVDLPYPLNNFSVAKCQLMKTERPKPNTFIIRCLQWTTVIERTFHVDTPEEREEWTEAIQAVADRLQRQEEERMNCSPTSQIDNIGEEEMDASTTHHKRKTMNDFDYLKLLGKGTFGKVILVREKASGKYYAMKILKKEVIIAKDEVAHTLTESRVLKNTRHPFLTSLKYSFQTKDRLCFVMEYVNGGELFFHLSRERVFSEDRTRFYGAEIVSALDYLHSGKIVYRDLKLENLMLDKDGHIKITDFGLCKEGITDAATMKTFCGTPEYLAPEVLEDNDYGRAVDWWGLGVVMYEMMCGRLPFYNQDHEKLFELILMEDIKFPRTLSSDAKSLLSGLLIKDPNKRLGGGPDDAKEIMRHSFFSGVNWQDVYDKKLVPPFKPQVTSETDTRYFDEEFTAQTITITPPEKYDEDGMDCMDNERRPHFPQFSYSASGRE
parameter-measured: log10 of Ki (log10 of the value in nM)

CS(=O)(=O)Nc1cc(CN2CCC[C@@H](Nc3ccc4[nH]ncc4c3)C2)ccc1Cl [Compound 1.212] | 2.59
CS(=O)(=O)Nc1cc(CN2CCC[C@H](Nc3ccc4[nH]ncc4c3)C2)ccc1Cl [Compound 1.213] | 3.51
CSc1ccc(CN2CC[C@@H](Nc3cccc4cnccc34)C2)cc1 [Compound 2.026] | 3.32
CCS(=O)(=O)Nc1cccc(CN2CCC[C@@H](Nc3ccc4[nH]ncc4c3)C2)c1 [Compound 1.123] | 3.38
NC(=O)c1cccc(CN2CCC[C@H](Nc3ccc4[nH]ncc4c3)C2)c1 [Compound 1.219] | 4.58
CS(=O)(=O)Nc1cccc(CN2CC[C@@H](Nc3cccc4cnccc34)C2)c1 [Compound 2.038] | 3.41
c1cc2cc(CN3CCC[C@@H](Nc4ccc5[nH]ncc5c4)C3)ccc2s1 [Compound 1.138] | 1.96
C#Cc1ccc(CN2CCC[C@@H](Nc3ccc4[nH]ncc4c3)C2)cc1 [Compound 1.076] | 2.38
CCS(=O)(=O)Nc1cc(CN2CC[C@@H](Nc3cccc4cnccc34)C2)ccc1C [Compound 2.054] | 2.62
CC(=O)NCc1cccc(CN2CCC[C@H](Nc3ccc4[nH]ncc4c3)C2)c1 [Compound 1.197] | 4.81
CSc1ccc(CN2CCC[C@@H](Nc3ccc4[nH]ncc4c3)C2)cc1 [Compound 1.074] | 2.64
OCCN1CCc2ccc(CN3CCC[C@H](Nc4ccc5[nH]ncc5c4)C3)cc21 [Compound 1.217] | 4.01
OCCn1ccc2ccc(CN3CCC[C@H](Nc4ccc5[nH]ncc5c4)C3)cc21 [Compound 1.109] | 3.72
c1cc(C2CC2)ccc1CN1CCC[C@@H](Nc2ccc3[nH]ncc3c2)C1 [Compound 1.206] | 2.72
CC(C)(C)OC(=O)NCc1cccc(CN2CCC[C@H](Nc3ccc4[nH]ncc4c3)C2)c1 [Compound 1.176] | 4.32
Cc1ccc(CN2CC[C@@H](Nc3cccc4cnccc34)C2)cc1 [Compound 2.025] | 2.98
c1ccc(CN2CC[C@@H](Nc3cccc4cnccc34)C2)cc1 [Compound 2.046] | 3.30

Origin of measurements: patent US20090325959A1
